- Measured Target: Signal transducer and activator of transcription 3 (Homo sapiens)
- Sequence (P40763 whole entry): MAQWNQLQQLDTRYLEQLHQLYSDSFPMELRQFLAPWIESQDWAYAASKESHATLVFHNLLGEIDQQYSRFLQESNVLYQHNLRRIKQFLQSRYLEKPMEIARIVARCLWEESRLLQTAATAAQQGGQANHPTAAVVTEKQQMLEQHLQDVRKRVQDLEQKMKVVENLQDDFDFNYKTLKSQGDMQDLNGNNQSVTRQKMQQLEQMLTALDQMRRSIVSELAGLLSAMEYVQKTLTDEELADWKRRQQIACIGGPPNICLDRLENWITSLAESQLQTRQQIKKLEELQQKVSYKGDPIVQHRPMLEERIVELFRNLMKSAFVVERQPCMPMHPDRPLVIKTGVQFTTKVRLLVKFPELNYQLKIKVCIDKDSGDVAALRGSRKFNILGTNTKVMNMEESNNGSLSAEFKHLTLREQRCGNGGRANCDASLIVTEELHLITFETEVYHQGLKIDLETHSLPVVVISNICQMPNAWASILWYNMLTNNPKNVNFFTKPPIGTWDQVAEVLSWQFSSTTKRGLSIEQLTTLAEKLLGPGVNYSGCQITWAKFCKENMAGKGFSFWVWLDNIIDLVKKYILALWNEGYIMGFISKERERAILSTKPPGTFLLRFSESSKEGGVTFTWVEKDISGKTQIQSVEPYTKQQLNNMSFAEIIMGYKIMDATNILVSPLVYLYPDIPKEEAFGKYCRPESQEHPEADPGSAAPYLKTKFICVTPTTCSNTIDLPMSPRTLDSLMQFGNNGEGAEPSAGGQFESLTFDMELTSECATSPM
Metric: IC50 (µM)
# value in µM; strip the unit string

Ask: Can you look up IC50 on Signal transducer and activator of transcription 3 (Homo sapiens) for `C=C1C2=C(C(=O)N1OC)[C@H](O)[C@@](C)(O)[C@H](CCCCC)O2` ?
Result: 610
